target: DNA gyrase subunit B (Staphylococcus aureus, UniProt P0A0K8); assay: Inhibition of Staphylococcus aureus DNA gyrase B ATPase activity
Sequence (P0A0K8 whole entry): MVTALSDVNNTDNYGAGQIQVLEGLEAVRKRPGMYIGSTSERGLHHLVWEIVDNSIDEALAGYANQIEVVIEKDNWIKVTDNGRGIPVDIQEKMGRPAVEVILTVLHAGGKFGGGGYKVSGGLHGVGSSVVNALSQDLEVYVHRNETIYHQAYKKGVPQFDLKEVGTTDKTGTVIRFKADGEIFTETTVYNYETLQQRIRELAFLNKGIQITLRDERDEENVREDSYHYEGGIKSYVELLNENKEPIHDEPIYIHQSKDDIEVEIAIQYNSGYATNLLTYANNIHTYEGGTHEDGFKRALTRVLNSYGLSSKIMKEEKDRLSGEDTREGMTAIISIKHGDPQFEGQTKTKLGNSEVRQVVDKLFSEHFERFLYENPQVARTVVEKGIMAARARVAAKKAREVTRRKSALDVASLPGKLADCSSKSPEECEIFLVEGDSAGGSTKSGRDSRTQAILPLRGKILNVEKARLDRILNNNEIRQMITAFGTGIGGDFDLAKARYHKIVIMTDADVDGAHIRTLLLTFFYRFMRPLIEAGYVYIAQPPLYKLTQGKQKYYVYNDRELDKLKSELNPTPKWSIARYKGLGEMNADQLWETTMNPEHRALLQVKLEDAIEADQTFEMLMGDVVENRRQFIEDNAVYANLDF
pIC50: −log10 of the molar value.
Please use Y whenever pIC50 is not below 5, and N whenever it is.

{"STRUCTURE_SMILES": "COc1ccc2[nH]c(-c3ccc(NC(=O)COCC(=O)O)cc3)nc2c1", "CATEGORY": "Y"}
{"STRUCTURE_SMILES": "O=C(O)COCC(=O)Nc1ccc(-c2nc3cc(F)ccc3[nH]2)cc1", "CATEGORY": "Y"}
{"STRUCTURE_SMILES": "CC(=O)Nc1ccc(OCC[n+]2ccc(CCS(=O)(=O)[O-])cc2)cc1", "CATEGORY": "N"}
{"STRUCTURE_SMILES": "COc1ccc2[nH]c(-c3ccc(NC(=O)CCCCC(=O)O)cc3)nc2c1", "CATEGORY": "N"}
{"STRUCTURE_SMILES": "COC(=O)CCCC(=O)Nc1ccc(-c2nc3cccnc3[nH]2)cc1", "CATEGORY": "Y"}
{"STRUCTURE_SMILES": "O=C(O)CC(=O)Nc1ccc(-c2nc3cccnc3[nH]2)cc1", "CATEGORY": "N"}
{"STRUCTURE_SMILES": "O=C(O)CSCC(=O)Nc1ccc(-c2nc3cc(F)ccc3[nH]2)cc1", "CATEGORY": "Y"}
{"STRUCTURE_SMILES": "O=C(O)CC(=O)Nc1ccc(-c2nc3cc([N+](=O)[O-])ccc3[nH]2)cc1", "CATEGORY": "Y"}
{"STRUCTURE_SMILES": "O=C(O)CSCC(=O)Nc1ccc(-c2nc3ccccc3[nH]2)cc1", "CATEGORY": "N"}
{"STRUCTURE_SMILES": "CNc1cc(CCNC(=O)c2ccc3oc(O)nc3c2)nc(-c2ccncc2)n1", "CATEGORY": "N"}
{"STRUCTURE_SMILES": "O=C(O)COCC(=O)Nc1ccc(-c2nc3ccccc3[nH]2)cc1", "CATEGORY": "Y"}
{"STRUCTURE_SMILES": "COC(=O)CCCC(=O)Nc1ccc(-c2nc3cc(Cl)ccc3[nH]2)cc1", "CATEGORY": "N"}
{"STRUCTURE_SMILES": "O=C(O)COCC(=O)Nc1ccc(-c2nc3cccnc3[nH]2)cc1", "CATEGORY": "Y"}
{"STRUCTURE_SMILES": "COC(=O)CCCC(=O)Nc1ccc(-c2nc3ccccc3[nH]2)cc1", "CATEGORY": "N"}
{"STRUCTURE_SMILES": "O=C(O)CC(=O)Nc1ccc(-c2nc3ccccc3[nH]2)cc1", "CATEGORY": "Y"}

###

test system: Staphylococcus aureus; experiment: Antimicrobial activity against methicillin-resistant Staphylococcus aureus MTCC 96 after 16 to 24 hrs by agar dilution method; type: functional
Reported log10 MIC values are given for each entry in this list.
EXPERIMENTAL_READOUT: log10 MIC (log10 of the value in µM)

{"STRUCTURE_SMILES": "O=C(O)CCC(=O)Nc1ccc(-c2nc3cc(F)ccc3[nH]2)cc1", "log10 MIC": 1.58}
{"STRUCTURE_SMILES": "COC(=O)CCCC(=O)Nc1ccc(-c2nc3cc(F)ccc3[nH]2)cc1", "log10 MIC": 1.51}
{"STRUCTURE_SMILES": "O=C(O)CCCCC(=O)Nc1ccc(-c2nc3cc(F)ccc3[nH]2)cc1", "log10 MIC": 1.77}
{"STRUCTURE_SMILES": "O=C(O)COCC(=O)Nc1ccc(-c2nc3ccccc3[nH]2)cc1", "log10 MIC": 1.67}
{"STRUCTURE_SMILES": "COc1ccc2[nH]c(-c3ccc(NC(=O)CSCC(=O)O)cc3)nc2c1", "log10 MIC": 1.83}
{"STRUCTURE_SMILES": "COc1ccc2[nH]c(-c3ccc(NC(=O)COCC(=O)O)cc3)nc2c1", "log10 MIC": 1.25}
{"STRUCTURE_SMILES": "O=C(O)CSCC(=O)Nc1ccc(-c2nc3cc([N+](=O)[O-])ccc3[nH]2)cc1", "log10 MIC": 1.23}
{"STRUCTURE_SMILES": "O=C(O)COCC(=O)Nc1ccc(-c2nc3cc(Cl)ccc3[nH]2)cc1", "log10 MIC": 1.84}
{"STRUCTURE_SMILES": "O=C(O)COCC(=O)Nc1ccc(-c2nc3cccnc3[nH]2)cc1", "log10 MIC": 1.58}
{"STRUCTURE_SMILES": "O=C(O)CCCCC(=O)Nc1ccc(-c2nc3ccccc3[nH]2)cc1", "log10 MIC": 1.57}
{"STRUCTURE_SMILES": "O=C(O)CC(=O)Nc1ccc(-c2nc3cccnc3[nH]2)cc1", "log10 MIC": 1.63}
{"STRUCTURE_SMILES": "COc1ccc2[nH]c(-c3ccc(NC(=O)CCCC(=O)O)cc3)nc2c1", "log10 MIC": 1.55}
{"STRUCTURE_SMILES": "O=C(O)CCC(=O)Nc1ccc(-c2nc3ccccc3[nH]2)cc1", "log10 MIC": 1.61}
{"STRUCTURE_SMILES": "O=C(O)CSCC(=O)Nc1ccc(-c2nc3cc(Cl)ccc3[nH]2)cc1", "log10 MIC": 0.62}
{"STRUCTURE_SMILES": "O=C(O)CCCC(=O)Nc1ccc(-c2nc3cc([N+](=O)[O-])ccc3[nH]2)cc1", "log10 MIC": 1.64}
{"STRUCTURE_SMILES": "O=C(O)CCCCC(=O)Nc1ccc(-c2nc3cc(Cl)ccc3[nH]2)cc1", "log10 MIC": 1.53}
{"STRUCTURE_SMILES": "O=C(O)CCC(=O)Nc1ccc(-c2nc3cc([N+](=O)[O-])ccc3[nH]2)cc1", "log10 MIC": 1.23}
{"STRUCTURE_SMILES": "O=C(O)CC(=O)Nc1ccc(-c2nc3cc(Cl)ccc3[nH]2)cc1", "log10 MIC": 1.88}
{"STRUCTURE_SMILES": "O=C(O)CCCCC(=O)Nc1ccc(-c2nc3cc([N+](=O)[O-])ccc3[nH]2)cc1", "log10 MIC": 1.51}
{"STRUCTURE_SMILES": "O=C(O)CCCC(=O)Nc1ccc(-c2nc3cc(Cl)ccc3[nH]2)cc1", "log10 MIC": 1.84}
{"STRUCTURE_SMILES": "O=C(O)CCCCC(=O)Nc1ccc(-c2nc3cccnc3[nH]2)cc1", "log10 MIC": 0.97}

###

test system: Staphylococcus aureus; assay: Antimicrobial activity against methicillin-resistant Staphylococcus aureus MTCC 96 after 16 to 24 hrs by agar dilution method; type: functional
Reported MIC values are given for each entry in this list.
EXPERIMENTAL_READOUT: MIC (µM)

{"STRUCTURE_SMILES": "O=C(O)CC(=O)Nc1ccc(-c2nc3ccccc3[nH]2)cc1", "ASSAY_SYSTEM": "Staphylococcus aureus", "REPORTED": 21.2}
{"STRUCTURE_SMILES": "O=C(O)CC(=O)Nc1ccc(-c2nc3cc(F)ccc3[nH]2)cc1", "ASSAY_SYSTEM": "Staphylococcus aureus", "REPORTED": 79.8}
{"STRUCTURE_SMILES": "O=C(O)CSCC(=O)Nc1ccc(-c2nc3cc(F)ccc3[nH]2)cc1", "ASSAY_SYSTEM": "Staphylococcus aureus", "REPORTED": 17.3}
{"STRUCTURE_SMILES": "O=C(O)CCC(=O)Nc1ccc(-c2nc3cccnc3[nH]2)cc1", "ASSAY_SYSTEM": "Staphylococcus aureus", "REPORTED": 10.1}
{"STRUCTURE_SMILES": "O=C(O)CCCC(=O)Nc1ccc(-c2nc3cc(F)ccc3[nH]2)cc1", "ASSAY_SYSTEM": "Staphylococcus aureus", "REPORTED": 9.15}
{"STRUCTURE_SMILES": "O=C(O)CSCC(=O)Nc1ccc(-c2nc3cccnc3[nH]2)cc1", "ASSAY_SYSTEM": "Staphylococcus aureus", "REPORTED": 9.12}

###

system: Staphylococcus aureus; assay: Antimicrobial activity against methicillin-resistant Staphylococcus aureus MTCC 96 after 16 to 24 hrs by agar dilution method; assay type: functional

{"STRUCTURE_SMILES": "COC(=O)CCCC(=O)Nc1ccc(-c2nc3cccnc3[nH]2)cc1", "UNIT": "µM", "MIC": 36.9}
{"STRUCTURE_SMILES": "O=C(O)COCC(=O)Nc1ccc(-c2nc3cc([N+](=O)[O-])ccc3[nH]2)cc1", "UNIT": "µM", "MIC": 47}
{"STRUCTURE_SMILES": "COC(=O)CCCC(=O)Nc1ccc(-c2nc3cc([N+](=O)[O-])ccc3[nH]2)cc1", "UNIT": "µM", "MIC": 32.7}
{"STRUCTURE_SMILES": "O=C(O)CSCC(=O)Nc1ccc(-c2nc3ccccc3[nH]2)cc1", "UNIT": "µM", "MIC": 37.6}
{"STRUCTURE_SMILES": "COc1ccc2[nH]c(-c3ccc(NC(=O)CCC(=O)O)cc3)nc2c1", "UNIT": "µM", "MIC": 73.7}
